All figures here come from ChEMBL document CHEMBL1128693.

Molecular target: Tubulin (Bos taurus) (UniProt Q6B856+Q862L2+Q862F3)
Assay: Promotion of tubulin polymerization
REPORTED METRIC: ED50 (µM)

A. CC(=O)O[C@@]12CO[C@@H]1C[C@H](O)[C@@]1(C)C(=O)[C@H](O)C3=C(C)[C@@H](OC(=O)[C@H](O)[C@@H](NC(=O)OCC(C)C)C(C)(C)C)C[C@@](O)([C@@H](OC(=O)c4ccccc4)[C@H]21)C3(C)C
B. CCCCCCOC(=O)N[C@H]([C@@H](O)C(=O)O[C@H]1C[C@@]2(O)[C@@H](OC(=O)c3ccccc3)[C@@H]3[C@]4(OC(C)=O)CO[C@@H]4C[C@H](O)[C@@]3(C)C(=O)[C@H](O)C(=C1C)C2(C)C)C(C)(C)C
QUERY: Parameter check: reported ED50 is higher for which label, A or B ? Provide the label of your selected option as the answer.
RESULT: B

---

Experiment: Water solubility relative to Paclitaxel solubility
Assay type: ADME
Conditions: buffer
REPORTED METRIC: Ratio

CHEMICAL SMILES: CC(=O)O[C@@]12CO[C@@H]1C[C@H](O)[C@@]1(C)C(=O)[C@H](O)C3=C(C)[C@@H](OC(=O)[C@H](O)[C@@H](NC(=O)OC(C)(C)C)C(C)(C)C)C[C@@](O)([C@@H](OC(=O)c4ccccc4)[C@H]21)C3(C)C
Ratio: 93

CHEMICAL SMILES: CCC(C)(C)OC(=O)N[C@H]([C@@H](O)C(=O)O[C@H]1C[C@@]2(O)[C@@H](OC(=O)c3ccccc3)[C@@H]3[C@]4(OC(C)=O)CO[C@@H]4C[C@H](O)[C@@]3(C)C(=O)[C@H](O)C(=C1C)C2(C)C)C(C)(C)C
Ratio: 87

---

Target: Tubulin (Bos taurus) (UniProt Q6B856+Q862L2+Q862F3)
Experiment: Promotion of tubulin polymerization
REPORTED METRIC: ED50 (nM)

a. CC(=O)O[C@@]12CO[C@@H]1C[C@H](O)[C@@]1(C)C(=O)[C@H](O)C3=C(C)[C@@H](OC(=O)[C@H](O)[C@@H](NC(=O)CC(C)(C)C)C(C)(C)C)C[C@@](O)([C@@H](OC(=O)c4ccccc4)[C@H]21)C3(C)C
b. CC(=O)O[C@@]12CO[C@@H]1C[C@H](O)[C@@]1(C)C(=O)[C@H](O)C3=C(C)[C@@H](OC(=O)[C@H](O)[C@@H](NC(=O)Nc4ccccc4)C(C)(C)C)C[C@@](O)([C@@H](OC(=O)c4ccccc4)[C@H]21)C3(C)C
QUERY: Parameter check: reported ED50 is higher for which label, a or b ? Provide the label of your selected option as the answer.
RESULT: a

---

Target: Tubulin (Bos taurus) (UniProt Q6B856+Q862L2+Q862F3)
Assay: ED50 relative to paclitaxel in promoting tubulin polymerization
REPORTED METRIC: ED50 (nM)

CHEMICAL SMILES: CC(=O)O[C@@]12CO[C@@H]1C[C@H](O)[C@@]1(C)C(=O)[C@H](O)C3=C(C)[C@@H](OC(=O)[C@H](O)[C@@H](NC(=O)OC(C)(C)C)c4ccccc4)C[C@@](O)([C@@H](OC(=O)c4ccccc4)[C@H]21)C3(C)C.O.O.O
REPORTED METRIC: ED50
RESULT UNIT: nM
QUANTITATIVE RESULT: 1140
--
CHEMICAL SMILES: CCC(C)(C)OC(=O)N[C@H]([C@@H](O)C(=O)O[C@H]1C[C@@]2(O)[C@@H](OC(=O)c3ccccc3)[C@@H]3[C@]4(OC(C)=O)CO[C@@H]4C[C@H](O)[C@@]3(C)C(=O)[C@H](O)C(=C1C)C2(C)C)C(C)(C)C
REPORTED METRIC: ED50
RESULT UNIT: nM
QUANTITATIVE RESULT: 930
--
CHEMICAL SMILES: CC(=O)O[C@@]12CO[C@@H]1C[C@H](O)[C@@]1(C)C(=O)[C@H](O)C3=C(C)[C@@H](OC(=O)[C@H](O)[C@@H](NC(=O)CC(C)(C)C)C(C)(C)C)C[C@@](O)([C@@H](OC(=O)c4ccccc4)[C@H]21)C3(C)C
REPORTED METRIC: ED50
RESULT UNIT: nM
QUANTITATIVE RESULT: 1050
--
CHEMICAL SMILES: CCCCCCOC(=O)N[C@H]([C@@H](O)C(=O)O[C@H]1C[C@@]2(O)[C@@H](OC(=O)c3ccccc3)[C@@H]3[C@]4(OC(C)=O)CO[C@@H]4C[C@H](O)[C@@]3(C)C(=O)[C@H](O)C(=C1C)C2(C)C)C(C)(C)C
REPORTED METRIC: ED50
RESULT UNIT: nM
QUANTITATIVE RESULT: 930
--
CHEMICAL SMILES: CC(=O)O[C@@]12CO[C@@H]1C[C@H](O)[C@@]1(C)C(=O)[C@H](O)C3=C(C)[C@@H](OC(=O)[C@H](O)[C@@H](/N=C(/S)NC(C)(C)C)C(C)(C)C)C[C@@](O)([C@@H](OC(=O)c4ccccc4)[C@H]21)C3(C)C
REPORTED METRIC: ED50
RESULT UNIT: nM
QUANTITATIVE RESULT: 900
--
CHEMICAL SMILES: CC(=O)O[C@@]12CO[C@@H]1C[C@H](O)[C@@]1(C)C(=O)[C@H](O)C3=C(C)[C@@H](OC(=O)[C@H](O)[C@@H](NC(=O)Nc4ccccc4)C(C)(C)C)C[C@@](O)([C@@H](OC(=O)c4ccccc4)[C@H]21)C3(C)C
REPORTED METRIC: ED50
RESULT UNIT: nM
QUANTITATIVE RESULT: 1040
--
CHEMICAL SMILES: CC(=O)O[C@@]12CO[C@@H]1C[C@H](O)[C@@]1(C)C(=O)[C@H](O)C3=C(C)[C@@H](OC(=O)[C@H](O)[C@@H](NC(=O)C(C)(C)C)C(C)(C)C)C[C@@](O)([C@@H](OC(=O)c4ccccc4)[C@H]21)C3(C)C
REPORTED METRIC: ED50
RESULT UNIT: nM
QUANTITATIVE RESULT: 1050
--
CHEMICAL SMILES: CC(=O)O[C@@]12CO[C@@H]1C[C@H](O)[C@@]1(C)C(=O)[C@H](O)C3=C(C)[C@@H](OC(=O)[C@H](O)[C@@H](NC(=O)OC(C)(C)C)C(C)(C)C)C[C@@](O)([C@@H](OC(=O)c4ccccc4)[C@H]21)C3(C)C
REPORTED METRIC: ED50
RESULT UNIT: nM
QUANTITATIVE RESULT: 930
--
CHEMICAL SMILES: CC(=O)O[C@@]12CO[C@@H]1C[C@H](O)[C@@]1(C)C(=O)[C@H](O)C3=C(C)[C@@H](OC(=O)[C@H](O)[C@@H](NC(=O)c4ccccc4)C(C)(C)C)C[C@@](O)([C@@H](OC(=O)c4ccccc4)[C@H]21)C3(C)C
REPORTED METRIC: ED50
RESULT UNIT: nM
QUANTITATIVE RESULT: 930
--
CHEMICAL SMILES: CC(=O)O[C@@]12CO[C@@H]1C[C@H](O)[C@@]1(C)C(=O)[C@H](O)C3=C(C)[C@@H](OC(=O)[C@H](O)[C@@H](NC(=O)OCC(C)C)C(C)(C)C)C[C@@](O)([C@@H](OC(=O)c4ccccc4)[C@H]21)C3(C)C
REPORTED METRIC: ED50
RESULT UNIT: nM
QUANTITATIVE RESULT: 930
--
CHEMICAL SMILES: CC(=O)O[C@@]12CO[C@@H]1C[C@H](O)[C@@]1(C)C(=O)[C@H](O)C3=C(C)[C@@H](OC(=O)[C@H](O)[C@@H](NC(=O)NC(C)(C)C)C(C)(C)C)C[C@@](O)([C@@H](OC(=O)c4ccccc4)[C@H]21)C3(C)C
REPORTED METRIC: ED50
RESULT UNIT: nM
QUANTITATIVE RESULT: 1050
--
CHEMICAL SMILES: CCCCOC(=O)N[C@H]([C@@H](O)C(=O)O[C@H]1C[C@@]2(O)[C@@H](OC(=O)c3ccccc3)[C@@H]3[C@]4(OC(C)=O)CO[C@@H]4C[C@H](O)[C@@]3(C)C(=O)[C@H](O)C(=C1C)C2(C)C)C(C)(C)C
REPORTED METRIC: ED50
RESULT UNIT: nM
QUANTITATIVE RESULT: 930
--
CHEMICAL SMILES: CC(=O)O[C@@]12CO[C@@H]1C[C@H](O)[C@@]1(C)C(=O)[C@H](O)C3=C(C)[C@@H](OC(=O)[C@H](O)[C@@H](NC(=O)Oc4ccccc4)C(C)(C)C)C[C@@](O)([C@@H](OC(=O)c4ccccc4)[C@H]21)C3(C)C
REPORTED METRIC: ED50
RESULT UNIT: nM
QUANTITATIVE RESULT: 930
